- Method Notes: Cytotoxicity against rat PC-12 cells assessed as cell viability at 25 uM incubated for 24 hrs by MTT assay relative to control
- Format: toxicity, cell-based
- Test Parameters: read-out: Activity
Outcome Measure: viability at 24 h, 25 µM (%)

INSERT INTO assay_data (compound, units, value_observed) VALUES
  ('Cc1ccc(NCC(=O)Nc2ccc(-c3nc(-c4ccnc(Nc5ccc(OC(F)(F)F)cc5)c4)no3)cc2)cc1', '%', 100),
  ('Cc1ccccc1NCC(=O)Nc1ccc(-c2nc(-c3ccnc(Nc4ccc(OC(F)(F)F)cc4)c3)no2)cc1', '%', 99.6),
  ('COc1cccc(NCC(=O)Nc2ccc(-c3nc(-c4ccnc(Nc5ccc(OC(F)(F)F)cc5)c4)no3)cc2)c1', '%', 99.5),
  ('O=C(CNc1ccc(Br)cc1)Nc1ccc(-c2nc(-c3ccnc(Nc4ccc(OC(F)(F)F)cc4)c3)no2)cc1', '%', 99.7),
  ('O=C(CNc1ccc(F)c(F)c1)Nc1ccc(-c2nc(-c3ccnc(Nc4ccc(OC(F)(F)F)cc4)c3)no2)cc1', '%', 99.4),
  ('O=C(CNCc1cccc(Cl)c1)Nc1ccc(-c2nc(-c3ccnc(Nc4ccc(OC(F)(F)F)cc4)c3)no2)cc1', '%', 99.8),
  ('O=C(CNCc1cccc(F)c1)Nc1ccc(-c2nc(-c3ccnc(Nc4ccc(OC(F)(F)F)cc4)c3)no2)cc1', '%', 98.4),
  ('CCCNCC(=O)Nc1ccc(-c2nc(-c3ccnc(Nc4ccc(OC(F)(F)F)cc4)c3)no2)cc1', '%', 99.6),
  ('O=C(CNCc1ccc(C(F)(F)F)cc1)Nc1ccc(-c2nc(-c3ccnc(Nc4ccc(OC(F)(F)F)cc4)c3)no2)cc1', '%', 99.7),
  ('COc1ccc(NCC(=O)Nc2ccc(-c3nc(-c4ccnc(Nc5ccc(OC(F)(F)F)cc5)c4)no3)cc2)cc1', '%', 99),
  ('O=C(CNc1ccc(Cl)cc1)Nc1ccc(-c2nc(-c3ccnc(Nc4ccc(OC(F)(F)F)cc4)c3)no2)cc1', '%', 98.8),
  ('O=C(CNc1ccccc1)Nc1ccc(-c2nc(-c3ccnc(Nc4ccc(OC(F)(F)F)cc4)c3)no2)cc1', '%', 99.8),
  ('O=C(CNCc1ccccc1)Nc1ccc(-c2nc(-c3ccnc(Nc4ccc(OC(F)(F)F)cc4)c3)no2)cc1', '%', 99.7),
  ('Cc1cccc(NCC(=O)Nc2ccc(-c3nc(-c4ccnc(Nc5ccc(OC(F)(F)F)cc5)c4)no3)cc2)c1', '%', 99.6),
  ('O=C(CNC1CC1)Nc1ccc(-c2nc(-c3ccnc(Nc4ccc(OC(F)(F)F)cc4)c3)no2)cc1', '%', 100),
  ('CC(C)CNCC(=O)Nc1ccc(-c2nc(-c3ccnc(Nc4ccc(OC(F)(F)F)cc4)c3)no2)cc1', '%', 99.9);

###

- Method Notes: Cytotoxicity against rat PC-12 cells assessed as cell viability at 50 uM incubated for 24 hrs by MTT assay relative to control
- Type: toxicity, cell-based
- Test Parameters: read-out: Activity
Listing of recorded viability at 24 h, 50 µM by entry.
Outcome Measure: viability at 24 h, 50 µM

INSERT INTO assay_data (compound, value_observed) VALUES
  ('Cc1ccccc1NCC(=O)Nc1ccc(-c2nc(-c3ccnc(Nc4ccc(OC(F)(F)F)cc4)c3)no2)cc1', '99.3%'),
  ('COc1ccc(NCC(=O)Nc2ccc(-c3nc(-c4ccnc(Nc5ccc(OC(F)(F)F)cc5)c4)no3)cc2)cc1', '98.7%'),
  ('Cc1ccc(NCC(=O)Nc2ccc(-c3nc(-c4ccnc(Nc5ccc(OC(F)(F)F)cc5)c4)no3)cc2)cc1', '99.8%'),
  ('O=C(CNCc1cccc(F)c1)Nc1ccc(-c2nc(-c3ccnc(Nc4ccc(OC(F)(F)F)cc4)c3)no2)cc1', '96.7%'),
  ('O=C(CNCc1ccc(C(F)(F)F)cc1)Nc1ccc(-c2nc(-c3ccnc(Nc4ccc(OC(F)(F)F)cc4)c3)no2)cc1', '99.4%'),
  ('Cc1cccc(NCC(=O)Nc2ccc(-c3nc(-c4ccnc(Nc5ccc(OC(F)(F)F)cc5)c4)no3)cc2)c1', '99.2%'),
  ('COc1cccc(NCC(=O)Nc2ccc(-c3nc(-c4ccnc(Nc5ccc(OC(F)(F)F)cc5)c4)no3)cc2)c1', '98.3%'),
  ('O=C(CNCc1ccc(F)cc1)Nc1ccc(-c2nc(-c3ccnc(Nc4ccc(OC(F)(F)F)cc4)c3)no2)cc1', '99.8%'),
  ('CCCCNCC(=O)Nc1ccc(-c2nc(-c3ccnc(Nc4ccc(OC(F)(F)F)cc4)c3)no2)cc1', '98.9%'),
  ('O=C(CNC1CCCC1)Nc1ccc(-c2nc(-c3ccnc(Nc4ccc(OC(F)(F)F)cc4)c3)no2)cc1', '98.2%'),
  ('O=c1c(O)c(-c2ccc(O)c(O)c2)oc2cc(O)cc(O)c12', '99.5%');
